- STUDY_TARGET: ligand binding domain of human FXR (Homo sapiens (Human))
- PROTOCOL_TEXT: FXR ligand binding assay (LanthaScreen TR-FRET, SRC2-2 peptide recruitment)
- CONDITION_DESCRIPTION: read-out: % Efficacy
# Lookup of reported Emax keyed by entry
Output spec: scalar in %, unitless text.

Solved entries (count: 3):
COMPOUND: O=C(O)c1ccc(N2C[C@@H]3C[C@H]2C[C@H]3OCc2c(C3CCC4(CC3)CC4)noc2C2CC2)c(F)c1
Emax, %: 114
//
COMPOUND: O=C(NS(=O)(=O)C1CCCCC1)c1ccc(N2C[C@@H]3C[C@H]2C[C@H]3OCc2c(-c3c(Cl)cccc3Cl)noc2C2CC2)cc1
Emax, %: 166
//
COMPOUND: CC(=O)OC(C)CCS(=O)(=O)NC(=O)c1ccc(N2C[C@@H]3C[C@H]2C[C@H]3OCc2c(-c3c(Cl)cccc3Cl)noc2C2CC2)cc1 (stereo partly shown)
Emax, %: 145

Noted for Cc1cc(C(=O)NCCP(=O)(O)O)ccc1N1C[C@@H]2C[C@H]1C[C@H]2OCc1c(-c2c(Cl)cccc2Cl)noc1C1CC1 : its Emax reads 144

Measured Emax of O=P(O)(O)CCc1ccc(N2C[C@@H]3C[C@H]2C[C@H]3OCc2c(-c3c(Cl)cccc3Cl)noc2C2CC2)cc1 : 120

The recorded Emax for Cc1cccc(Cl)c1-c1noc(C2(F)CC2)c1CO[C@@H]1C[C@@H]2C[C@H]1CN2c1ccc(C(=O)O)c(F)c1 is 143

====

- STUDY_TARGET: human Farnesoid X receptor ligand-binding domain/Gal4 DNA binding domain chimera (Homo sapiens (Human))
- PROTOCOL_TEXT: Cell-based assay of FXR activation (FXR-UAS-bla HEK 293T beta-lactamase reporter)
- CONDITION_DESCRIPTION: cellular FXR beta-lactamase reporter assay, FXR-UAS-bla HEK 293T cells, 16 h; pEC50 = -log EC50
MEASURE_NAME: EC50 (nM)
Numbers only here, please. The scale is nM.

Previously resolved entries follow.
MOLECULE: O=C(O)c1cc(C2CC3(CCOCC3)C2)c2nc(N3C(=O)[C@@H]4C[C@H]3C[C@H]4OCc3c(-c4c(Cl)cccc4Cl)noc3C3CC3)sc2c1
EC50 / nM: 100
--
MOLECULE: O=C(O)c1ccc(N2C(=O)[C@@H]3C[C@H]2C[C@H]3OCc2c(-c3c(F)cccc3C3CC3)noc2C2CC2)cc1
EC50 / nM: 3.98
--
MOLECULE: Cc1cccc(Cl)c1-c1noc(C2CC2)c1CO[C@@H]1C[C@@H]2C[C@H]1CN2c1ccc(C(=O)O)c(F)c1
EC50 / nM: 2
--
MOLECULE: CCCS(=O)(=O)NC(=O)c1ccc(N2C[C@@H]3C[C@H]2C[C@H]3OC(=O)c2c(-c3c(Cl)cccc3Cl)noc2C2CC2)c(F)c1
EC50 / nM: 3.98
--
MOLECULE: O=C(O)c1cc(C2CCC2)c2nc(N3C[C@@H]4C[C@H]3C[C@H]4OCc3c(C4CCC5(CC4)CC5)noc3C3CC3)sc2c1
EC50 / nM: 25.1

Reported EC50 of O=C(O)c1cc(C2CCCOCC2)c2nc(N3C[C@@H]4C[C@H]3C[C@H]4OCc3c(-c4c(Cl)cccc4Cl)noc3C3CC3)sc2c1 (stereo partly shown) : 0.126

Looking up NS(=O)(=O)[C@@H]1CCC[C@H]1OC(=O)c1ccc(N2C(=O)[C@@H]3C[C@H]2C[C@H]3OCc2c(-c3c(Cl)cccc3Cl)noc2C2CC2)cc1 , I see its EC50 listed as 3.98

Sample O=C(O)c1cc([C@H]2CCOC2)c2nc(N3C[C@@H]4C[C@H]3C[C@H]4OCc3c(-c4c(F)cccc4Cl)noc3C3CC3)sc2c1 ; EC50 observed: 0.501

====

Item-by-item account of Emax
- STUDY_TARGET: human Farnesoid X receptor ligand-binding domain/Gal4 DNA binding domain chimera (Homo sapiens (Human), UniProt Q96RI1)
- Sequence (Q96RI1 262-486, change not shown): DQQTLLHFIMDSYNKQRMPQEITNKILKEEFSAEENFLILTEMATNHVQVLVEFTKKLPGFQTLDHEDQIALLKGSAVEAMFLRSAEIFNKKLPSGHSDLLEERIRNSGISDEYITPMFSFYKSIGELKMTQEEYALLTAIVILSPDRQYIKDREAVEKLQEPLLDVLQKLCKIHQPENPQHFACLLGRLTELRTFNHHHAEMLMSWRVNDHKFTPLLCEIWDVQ
- Sequence (P04386 1-147 partner): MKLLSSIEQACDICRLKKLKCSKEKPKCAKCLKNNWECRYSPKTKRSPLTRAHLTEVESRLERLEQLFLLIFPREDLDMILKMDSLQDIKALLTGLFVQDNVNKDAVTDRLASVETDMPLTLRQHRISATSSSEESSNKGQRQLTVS
- PROTOCOL_TEXT: Cell-based assay of FXR activation (FXR-UAS-bla HEK 293T beta-lactamase reporter)
- CONDITION_DESCRIPTION: HEK-293T; extent of activation relative to GW4064; cellular FXR beta-lactamase reporter assay; read-out: % Efficacy
Use % as the unit, but write only the number.

GIVEN_SMILES: CS(=O)(=O)CCNC(=O)c1ccc(N2C[C@@H]3C[C@H]2C[C@H]3OCc2c(-c3c(Cl)cccc3Cl)noc2C2CC2)cc1F
UNIT_OF_MEASURE: %
QUANTITATIVE_RESULT: 103
--
GIVEN_SMILES: O=C(O)c1ccc(N2C[C@@H]3C[C@H]2C[C@H]3OCc2c(-c3c(Cl)cccc3Cl)noc2C2CC2)c(F)c1
UNIT_OF_MEASURE: %
QUANTITATIVE_RESULT: 113
--
GIVEN_SMILES: O=C(O)c1ccc(N2C[C@@H]3C[C@H]2C[C@H]3OCc2c(-c3c(Cl)cccc3Cl)noc2C2CC2)nc1
UNIT_OF_MEASURE: %
QUANTITATIVE_RESULT: 104
--
GIVEN_SMILES: O=C(O)Cc1ccc(N2C[C@@H]3C[C@H]2C[C@H]3OCc2c(-c3c(Cl)cccc3Cl)noc2C2CC2)cc1
UNIT_OF_MEASURE: %
QUANTITATIVE_RESULT: 101
--
GIVEN_SMILES: O=C(NCCS(=O)(=O)O)c1ccc(N2C[C@@H]3C[C@H]2C[C@H]3OCc2c(-c3c(Cl)cccc3Cl)noc2C2CC2)cc1F
UNIT_OF_MEASURE: %
QUANTITATIVE_RESULT: 107

Please find the next compound below.
// field: Emax; key: O=C1NCCc2cc(N3C[C@@H]4C[C@H]3C[C@H]4OCc3c(-c4c(Cl)cccc4Cl)noc3C3CC3)ccc21 ; value = 114

====

- STUDY_TARGET: ligand binding domain of human FXR (Homo sapiens (Human), UniProt Q96RI1)
- Sequence (Q96RI1 262-486): as the sequence (Q96RI1 262-486, change not shown) above
- PROTOCOL_TEXT: FXR ligand binding assay (LanthaScreen TR-FRET, SRC2-2 peptide recruitment)
- CONDITION_DESCRIPTION: -log EC50, concentration required to produce 50% activation
Mark rule not met for pEC50 values under 8, and rule met for everything at or above.

Consider the following illustrative entries.
GIVEN_SMILES: O=C(O)c1cc([C@@H]2CCOC2)c2nc(N3C[C@@H]4C[C@H]3C[C@H]4OCc3c(-c4c(Cl)cccc4Cl)noc3C3CC3)sc2c1
CATEGORY: rule met
//
GIVEN_SMILES: O=C(O)c1c(F)cc(N2C[C@@H]3C[C@H]2C[C@H]3OCc2c(-c3c(Cl)cccc3Cl)noc2C2CC2)cc1F
CATEGORY: rule met
//
GIVEN_SMILES: O=C(O)CNC(=O)c1ccc(N2C[C@@H]3C[C@H]2C[C@H]3OCc2c(-c3c(Cl)cccc3Cl)noc2C2CC2)cc1
CATEGORY: rule met
//
GIVEN_SMILES: O=C(O)c1cc(F)c2nc(N3C[C@H]4C[C@@H]3[C@H](OCc3c(-c5c(Cl)cccc5Cl)noc3C3CC3)C4)sc2c1
CATEGORY: rule not met

Test whether the molecule O=C(O)c1ccc(N2C(=O)[C@@H]3C[C@H]2C[C@H]3OCc2c(-c3c(Cl)cccc3Cl)noc2C2CC2)cc1F records pEC50 of 8 or higher. rule met

Quick check, pEC50 >= 8? O=C(O)c1cnc(N2C(=O)[C@@H]3C[C@H]2C[C@H]3OCc2c(-c3c(Cl)cccc3Cl)noc2C2CC2)cn1 rule not met

Record O=C(O)c1cc(OC(F)(F)F)c2nc(N3C[C@@H]4C[C@H]3C[C@H]4OCc3c(-c4c(Cl)cccc4Cl)noc3C3(F)CC3)sc2c1 ; criterion: pEC50 no lower than 8. Met? rule met

====

Quick reference: pEC50 of the listed items.
- STUDY_TARGET: ligand binding domain of human FXR (Homo sapiens (Human))
- PROTOCOL_TEXT: FXR ligand binding assay (LanthaScreen TR-FRET, SRC2-2 peptide recruitment)
- CONDITION_DESCRIPTION: -log EC50, concentration required to produce 50% activation
Output: the number by itself.

See these solved cases before continuing.
MOLECULE: O=C(O)C1CC(c2ccc(N3C[C@@H]4C[C@H]3C[C@H]4OCc3c(-c4c(Cl)cccc4Cl)noc3C3CC3)cc2)C1 (stereo partly drawn)
STUDY_TARGET: ligand binding domain of human FXR (Homo sapiens (Human))
MEASURE_NAME: pEC50
QUANTITATIVE_RESULT: 8.6
//
MOLECULE: Cc1cc(C(=O)NCCP(=O)(OCOC(=O)C(C)(C)C)OCOC(=O)C(C)(C)C)ccc1N1C[C@@H]2C[C@H]1C[C@H]2OCc1c(-c2c(Cl)cccc2Cl)noc1C1CC1
STUDY_TARGET: ligand binding domain of human FXR (Homo sapiens (Human))
MEASURE_NAME: pEC50
QUANTITATIVE_RESULT: 8.8

Proceed to the following item.
The reported pEC50 of the molecule Cc1cccc(Cl)c1-c1noc(C2CC2)c1CO[C@@H]1C[C@@H]2C[C@H]1CN2c1nc2c(O[C@H]3CCOC3)cc(C(=O)O)cc2s1 was 8.8

These data points were gathered from patent US10793568B2.
